Molecular target: DNA topoisomerase II (Homo sapiens) (UniProt P11388+Q02880)
Test: Inhibition of human DNA topoisomerase II activity
Assay type: protein assay
Measured metric: ID50 (µM)

Answered examples (2):
COc1cc([C@@H]2c3cc4c(cc3[C@@H](Nc3ccccc3)[C@H]3COC[C@H]23)OCO4)cc(OC)c1O
50
COc1cc([C@@H]2c3cc4c(cc3[C@@H](Nc3ccc(F)cc3)[C@H]3COC[C@H]23)OCO4)cc(OC)c1O
50

a = COc1cc([C@@H]2c3cc4c(cc3[C@@H](Nc3ccc(F)cc3)[C@H]3CO[C@@H](O)[C@H]23)OCO4)cc(OC)c1O
b = COc1cc([C@@H]2c3cc4c(cc3[C@@H](Nc3ccccc3)[C@H]3CO[C@@H](OC)[C@H]23)OCO4)cc(OC)c1O
Task: Field: lower ID50 | Options: a / b Your answer should be the label attached to the chosen record.
Result: a
(a: 50 µM, b: 100 µM)
